# test_summary: pKa of the lipid by TNS fluorescence
# Format: physicochemical
# condition_notes: pKa
readout_kind: pKa
Lab note: write the figure by itself, no unit.

molecule	pKa
CCCCC/C=C\C/C=C\CCCCCCCCOCC(CN1CCCC[C@@H]1C)OCCOCCO[C@H]1CC[C@@]2(C)C(=CCC3C2CC[C@@]2(C)C3CC[C@@H]2[C@H](C)CCCC(C)C)C1 (stereo partly drawn)	6.75
CCCCC/C=C\C/C=C\CCCCCCCCOCC(CN1CCC(OC)C1)OCCCOCCCO[C@H]1CC[C@@]2(C)C(=CC[C@H]3[C@@H]4CC[C@H]([C@H](C)CCCC(C)C)[C@@]4(C)CC[C@@H]32)C1 (stereo partly drawn)	5.79

Please turn your attention to the following entry.
Query: Using known records, supply pKa for CCCCC/C=C\C/C=C\CCCCCCCCOCC(CN1CCC2(CC1)OCCO2)OCCOCCO[C@H]1CC[C@@]2(C)C(=CCC3C2CC[C@@]2(C)C3CC[C@@H]2[C@H](C)CCCC(C)C)C1 (stereo partly drawn)
Result: 5.85

###

The entries below come with measured PDI values attached.
# test_summary: Particle size and PDI by dynamic light scattering (Malvern Zetasizer)
# Assay type: physicochemical
# condition_notes: lipid/DSPC/CHOL/AVANTI 880150P 50/28/18/4, N/P 3.43
Lab note: write the figure by itself, no unit.

Query: Using known records, supply PDI for CCCCC/C=C\C/C=C\CCCCCCCCOCC(CN1CCOCC1)OCCOCCO[C@H]1CC[C@@]2(C)C(=CC[C@H]3[C@@H]4CC[C@H]([C@H](C)CCCC(C)C)[C@@]4(C)CC[C@@H]32)C1 (some centres unmarked) [E0011]
Result: 0.221

Query: Using known records, supply PDI for CCCCC/C=C\C/C=C\CCCCCCCCOCC(CN1CCN(C(=O)OC(C)(C)C)CC1)OCCOCCO[C@H]1CC[C@@]2(C)C(=CC[C@H]3[C@@H]4CC[C@H]([C@H](C)CCCC(C)C)[C@@]4(C)CC[C@@H]32)C1 (some centres unmarked) [E0002]
Result: 0.221

###

# test_summary: Particle size and PDI by dynamic light scattering (Malvern Zetasizer)
# Format: physicochemical
# condition_notes: lipid/no neutral lipid/CHOL/AVANTI 880150P 50/0/46/4, N/P 3.43
readout_kind: Final size (nm)
The answer consists of two parts: a number and, after it, its unit.

compound	value_observed
CCCCC/C=C\C/C=C\CCCCCCCCOCC(CN1C(C)CCC1C)OCCOCCO[C@H]1CC[C@@]2(C)C(=CCC3C2CC[C@@]2(C)C3CC[C@@H]2[C@H](C)CCCC(C)C)C1 (some centres unmarked)	194 nm

Query: Using known records, supply Final size (nm) for CCCCC/C=C\C/C=C\CCCCCCCCOCC(CN1CCC(O)C1)OCCOCCO[C@H]1CC[C@@]2(C)C(=CC[C@H]3[C@@H]4CC[C@H]([C@H](C)CCCC(C)C)[C@@]4(C)CC[C@@H]32)C1 (some centres unmarked)
Result: 103 nm

Query: Using known records, supply Final size (nm) for CCCCC/C=C\C/C=C\CCCCCCCCOCC(CN1CCOCCOCCOCC1)OCCOCCO[C@H]1CC[C@@]2(C)C(=CC[C@H]3[C@@H]4CC[C@H]([C@H](C)CCCC(C)C)[C@@]4(C)CC[C@@H]32)C1 (some centres unmarked)
Result: 155 nm

Query: Using known records, supply Final size (nm) for CCCCC/C=C\C/C=C\CCCCCCCCOCC(CN1CC[C@H]2OC(C)(C)O[C@H]2C1)OCCOCCO[C@H]1CC[C@@]2(C)C(=CCC3C2CC[C@@]2(C)C3CC[C@@H]2[C@H](C)CCCC(C)C)C1 (some centres unmarked)
Result: 82 nm

Query: Using known records, supply Final size (nm) for CCCCC/C=C\C/C=C\CCCCCCCCOCC(CN1CC=CC1)OCCOCCO[C@H]1CC[C@@]2(C)C(=CCC3C2CC[C@@]2(C)C3CC[C@@H]2[C@H](C)CCCC(C)C)C1 (some centres unmarked)
Result: 63 nm
